The values you see were collected from the array DNA melting data of Ke et al. (doi:10.1101/2024.01.08.574731).

- test_protocol: folding enthalpy; higher = less favourable; fluorescence melt of hairpins on a sequencing array, two-state fit
- settings: sodium 0.088 M
Category key, based on recorded folding enthalpy: low = under -30 kcal/mol, intermediate = from -30 kcal/mol up to -20 kcal/mol, high = -20 kcal/mol and over

Assign a bin to GCCCCGCGAAAGCAGCGC ((.(.((....)).).))
high

Assign a bin to GATTGGGAAACCAATC ((((((....))))))
low

Assign a bin to GATGGCGGAAACACCATC (((((.(....).)))))
low

Assign a bin to GTGATGGGAAACTGTCAC ((((..(....)..))))
low

Assign a bin to GCTTACGAAAGTATCAGC ((((((....)))..)))
high

Assign a bin to GCATAGGGAAACCTATGC (((((((....)))))))
low

Assign a bin to GCTACTCCGAAAGGAAGC (((..(((....))))))
high

Assign a bin to GTTCTGGGAAACCAAAAC (((.(((....))).)))
high

Assign a bin to GTCTCCCGAAAGGGGGAC (((.(((....))).)))
low

Assign a bin to GTATCAGGAAACTGACAC ((.((((....)))).))
intermediate

Assign a bin to GTCCGGGGAAACCTGGAC ((((.((....)).))))
low

Assign a bin to GCTTTCGAAAGAAGAAGC ((((((....)))..)))
intermediate
